Test: Inhibition of F-actin depolymerization
reported property: IC50 (µM)

Illustrative cases are given below, each with its answer.
>  <cpd smiles>
CC(=O)O[C@@H]([C@@H](C)[C@@H](/C=C/c1ccccc1)OC(=O)[C@H](C)N(C)C)[C@H](C)/C=C/N(C)C=O

>  <IC50 [µM]>
85

$$$$
>  <cpd smiles>
CC(=O)O[C@@H]([C@@H](C)[C@@H](/C=C/CCc1ccccc1)OC(=O)[C@H](C)N(C)C)[C@H](C)/C=C/N(C)C=O

>  <IC50 [µM]>
47

$$$$

1: CC(=O)O[C@@H]([C@@H](C)[C@@H](/C=C/CCCCc1ccccc1)OC(=O)[C@H](C)N(C)C)[C@H](C)/C=C/N(C)C=O
2: C/C=C/[C@@H](OC(=O)[C@H](C)N(C)C)[C@H](C)[C@H](OC(C)=O)[C@H](C)/C=C/N(C)C=O
3: CC(=O)O[C@@H]([C@@H](C)[C@@H](CC[C@H](C)[C@H](O)[C@H](C)[C@@H](O)CCO)OC(=O)[C@H](C)N(C)C)[C@H](C)/C=C/N(C)C=O
Put these in order: smallest IC50 first, largest last. In plain terms: list the labels in the order you were asked to.
3, 1, 2
(3: 7.9 µM, 1: 21 µM, 2: 210 µM)

src = ChEMBL document CHEMBL1153350
